TARGET UNDER TEST: T1, human GLP-1 receptor (CHO cells stably transfected with the human GLP-1 receptor) (human), P43220
T1 chain: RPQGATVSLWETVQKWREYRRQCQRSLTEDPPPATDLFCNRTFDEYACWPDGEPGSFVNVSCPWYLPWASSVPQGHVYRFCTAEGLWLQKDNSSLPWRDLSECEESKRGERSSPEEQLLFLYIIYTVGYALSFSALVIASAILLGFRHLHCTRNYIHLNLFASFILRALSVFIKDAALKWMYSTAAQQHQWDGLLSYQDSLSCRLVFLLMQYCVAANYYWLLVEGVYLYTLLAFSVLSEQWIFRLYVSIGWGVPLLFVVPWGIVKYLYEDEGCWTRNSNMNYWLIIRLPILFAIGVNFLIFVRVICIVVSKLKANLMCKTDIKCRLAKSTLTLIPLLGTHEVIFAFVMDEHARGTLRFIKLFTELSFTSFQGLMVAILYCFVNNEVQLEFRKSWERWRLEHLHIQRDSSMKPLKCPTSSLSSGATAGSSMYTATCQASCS
ASSAY PROCEDURE: displacement of 125I-GLP-1 from intact CHO/GLP-1R cells (Example 9)
RESULT TYPE: IC50 (µM)
Reply with just the number (in µM).

# IC50 lookup, item HGEGTFTSDVSSYLEGQAAKEFIAWLVKGRPSSGAPPPS (modifications not checked) [GLP-1 Gly8(7-36) Exendin(31-39)] 0.074

The values you see were collected from patent US20040242853A1.
